tested.system: p38a/PRAK (Homo sapiens (Human), UniProt Q16539)
Sequence (Q16539 whole entry): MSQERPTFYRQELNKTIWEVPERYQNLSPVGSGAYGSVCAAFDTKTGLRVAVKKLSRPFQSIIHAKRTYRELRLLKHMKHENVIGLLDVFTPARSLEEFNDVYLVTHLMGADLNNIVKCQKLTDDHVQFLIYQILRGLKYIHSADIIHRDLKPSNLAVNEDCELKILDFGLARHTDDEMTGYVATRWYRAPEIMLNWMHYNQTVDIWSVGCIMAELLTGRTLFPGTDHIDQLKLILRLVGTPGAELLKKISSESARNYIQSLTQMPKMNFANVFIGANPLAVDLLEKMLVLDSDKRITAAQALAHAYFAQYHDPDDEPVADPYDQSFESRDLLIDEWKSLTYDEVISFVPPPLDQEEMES
run.description: p38a/PRAK biochemical assay: activation of PRAK by p38, FITC-HSP27 peptide phosphorylation (IMAP FP)
condition.summary: 10-point 1:3 dilution, top dose 300 μM; 60 pM active p38a, 1 nM inactive PRAK, 10 μM ATP, 2 h incubation; read-out: p38a/PRAK Enzyme pIC50 (converted)
measured.endpoint: IC50 (µM)

- compound: "Cc1cnc(COc2cc(C)n(-c3cc(-c4ccnc(C(C)(C)O)n4)ncc3C)c(=O)c2Cl)c(F)c1 (single isomer, unassigned) [Example 23A]"
  tested.system: "p38a/PRAK (Homo sapiens (Human), UniProt Q16539)"
  IC50, µM: 12.6

[A] COCC(C)(O)c1nccc(-c2cc(-n3c(C)cc(OCc4ncc(F)cc4F)c(Cl)c3=O)c(C)cn2)n1 (racemic) [Example 55]
[B] Cc1cnc(-c2ccnc(C3(CO)CC3)n2)cc1-n1c(C)cc(OCc2ncc(F)cc2F)c(Cl)c1=O (single isomer, unassigned) [Example 21B]
Task: Which is greater in IC50, the first item A or the second item B ? // return label of chosen record
Result: A
(A: 10 µM, B: 2 µM)
